These measurements were taken from ChEMBL document CHEMBL2150910.

test: Half life in CD1 mouse at 30 mg/kg, po; format: ADME, organism-based; set-up: dose 30 mg/kg, route oral; details: in vivo
observed_property: half-life (h)
Provide only the numeric value, understood in h.

Requested read-out: half-life. Entry: CC(=O)O[C@@H]([C@H]1C[C@@H](C)[C@H]2[C@H](O1)[C@H](O)[C@@]1(C)[C@@H]3CC[C@H]4C(C)(C)[C@@H](O[C@H]5CNCCO5)CC[C@@]45C[C@@]35CC[C@]21C)C(C)(C)O 3

What do we get for CC(=O)O[C@@H]([C@H]1C[C@@H](C)[C@H]2[C@H](O1)[C@H](O)[C@@]1(C)[C@@H]3CC[C@H]4C(C)(C)[C@@H](O[C@H]5CN(C6COC6)CCO5)CC[C@@]45C[C@@]35CC[C@]21C)C(C)(C)O ? 2.3

###

experiment: Half life in CD1 mouse at 1 mg/kg, iv; type: ADME, organism-based; parameters: dose 1 mg/kg, route intravenous; details: in vivo
observed_property: half-life (h)
Provide only the numeric value, understood in h.

Requested read-out: half-life. Entry: CC(=O)O[C@@H]([C@H]1C[C@@H](C)[C@H]2[C@H](O1)[C@H](O)[C@@]1(C)[C@@H]3CC[C@H]4C(C)(C)[C@@H](O[C@H]5CNCCO5)CC[C@@]45C[C@@]35CC[C@]21C)C(C)(C)O 6.5

What do we get for CC(=O)O[C@@H]([C@H]1C[C@@H](C)[C@H]2[C@H](O1)[C@H](O)[C@@]1(C)[C@@H]3CC[C@H]4C(C)(C)[C@@H](O[C@H]5CN(C6COC6)CCO5)CC[C@@]45C[C@@]35CC[C@]21C)C(C)(C)O ? 0.3

###

Provide the recorded bioavailability for the entries that follow.
assay: Oral bioavailability in CD1 mouse at 30 mg/kg; type: ADME, organism-based; conditions: in vivo
Provide only the numeric value, understood in %.

Requested read-out: bioavailability. Entry: CC(=O)O[C@@H]([C@H]1C[C@@H](C)[C@H]2[C@H](O1)[C@H](O)[C@@]1(C)[C@@H]3CC[C@H]4C(C)(C)[C@@H](O[C@H]5CNCCO5)CC[C@@]45C[C@@]35CC[C@]21C)C(C)(C)O 37

What do we get for CC(=O)O[C@@H]([C@H]1C[C@@H](C)[C@H]2[C@H](O1)[C@H](O)[C@@]1(C)[C@@H]3CC[C@H]4C(C)(C)[C@@H](O[C@H]5CN(C6COC6)CCO5)CC[C@@]45C[C@@]35CC[C@]21C)C(C)(C)O ? 11

###

Provide the recorded IC50 for the entries that follow.
assay: Inhibition of gamma-secretase-mediated amyloid beta-42 production in diluted 2B7 conditioned media after 5 hrs

Requested read-out: IC50. Entry: CC(=O)O[C@@H]([C@H]1C[C@@H](C)[C@H]2[C@H](O1)[C@H](O)[C@@]1(C)[C@@H]3CC[C@H]4C(C)(C)[C@@H](O[C@@H](CO)OCCO)CC[C@@]45C[C@@]35CC[C@]21C)C(C)(C)O 100 nM

What do we get for CC(=O)O[C@@H]([C@H]1C[C@@H](C)[C@H]2[C@H](O1)[C@H](O)[C@@]1(C)[C@@H]3CC[C@H]4C(C)(C)[C@@H](O[C@H]5CNCCO5)CC[C@@]45C[C@@]35CC[C@]21C)C(C)(C)O ? 55 nM

What do we get for CC(=O)O[C@@H]([C@H]1C[C@@H](C)[C@H]2[C@H](O1)[C@H](O)[C@@]1(C)[C@@H]3CC[C@H]4C(C)(C)[C@@H](O[C@H]5CN(CCN(C)C)CCO5)CC[C@@]45C[C@@]35CC[C@]21C)C(C)(C)O ? 90 nM

What do we get for CCN1CCO[C@@H](O[C@H]2CC[C@]34C[C@]35CC[C@]3(C)[C@@H]6[C@H](O[C@@H]([C@H](OC(C)=O)C(C)(C)O)C[C@H]6C)[C@H](O)[C@@]3(C)[C@@H]5CC[C@H]4C2(C)C)C1 ? 190 nM

What do we get for COCCN1CCO[C@@H](O[C@H]2CC[C@]34C[C@]35CC[C@]3(C)[C@@H]6[C@H](O[C@@H]([C@H](OC(C)=O)C(C)(C)O)C[C@H]6C)[C@H](O)[C@@]3(C)[C@@H]5CC[C@H]4C2(C)C)C1 ? 210 nM

What do we get for CC(=O)O[C@@H]([C@H]1C[C@@H](C)[C@H]2[C@H](O1)[C@H](O)[C@@]1(C)[C@@H]3CC[C@H]4C(C)(C)[C@@H](O[C@H]5CN(CC(N)=O)CCO5)CC[C@@]45C[C@@]35CC[C@]21C)C(C)(C)O ? 150 nM

What do we get for CC(=O)O[C@@H]([C@H]1C[C@@H](C)[C@H]2[C@H](O1)[C@H](O)[C@@]1(C)[C@@H]3CC[C@H]4C(C)(C)[C@@H](O[C@H]5CN(CC(C)(C)O)CCO5)CC[C@@]45C[C@@]35CC[C@]21C)C(C)(C)O ? 230 nM

What do we get for CC(=O)OC(C)(C)[C@H]1O[C@@]23O[C@@H]1C[C@@H](C)C2[C@@]1(C)CC[C@@]24C[C@@]25CC[C@H](O[C@@H]2OC[C@@H](O)[C@H](O)[C@H]2O)C(C)(C)[C@@H]5CC[C@H]4[C@]1(C)[C@H]3O (stereo partly specified) ? 3000 nM

What do we get for CC(=O)O[C@@H]([C@H]1C[C@@H](C)[C@H]2[C@H](O1)[C@H](O)[C@@]1(C)[C@@H]3CC[C@H]4C(C)(C)[C@@H](O[C@H]5CN(C6CC6)CCO5)CC[C@@]45C[C@@]35CC[C@]21C)C(C)(C)O ? 1000 nM

What do we get for CC(=O)O[C@@H]([C@H]1C[C@@H](C)[C@H]2[C@H](O1)[C@H](O)[C@@]1(C)[C@@H]3CC[C@H]4C(C)(C)[C@@H](O[C@@H]5OC[C@@H](O)[C@H](O)[C@H]5O)CC[C@@]45C[C@@]35CC[C@]21C)C(C)(C)O ? 60 nM

What do we get for CC(=O)O[C@@H]([C@H]1C[C@@H](C)[C@H]2[C@H](O1)[C@H](O)[C@@]1(C)[C@@H]3CC[C@H]4C(C)(C)[C@@H](O[C@H]5CN(CCN6CCOCC6)CCO5)CC[C@@]45C[C@@]35CC[C@]21C)C(C)(C)O ? 160 nM

What do we get for CC(=O)O[C@@H]([C@H]1C[C@@H](C)[C@H]2[C@H](O1)[C@H](O)[C@@]1(C)[C@@H]3CC[C@H]4C(C)(C)[C@@H](O[C@H]5CN(CCO)CCO5)CC[C@@]45C[C@@]35CC[C@]21C)C(C)(C)O ? 240 nM

What do we get for CC(=O)O[C@@H]([C@H]1C[C@@H](C)C2=C(O1)[C@H](O)[C@@]1(C)[C@@H]3CC[C@H]4C(C)(C)[C@@H](O[C@@H]5OC[C@@H](O)[C@H](O)[C@H]5O)CC[C@@]45C[C@@]35CC[C@]21C)C(C)(C)O ? 100 nM

What do we get for CC(=O)O[C@@H]([C@H]1C[C@@H](C)[C@H]2[C@H](O1)[C@H](O)[C@@]1(C)[C@@H]3CC[C@H]4C(C)(C)[C@@H](O[C@@H](CN(C)C)OCCN(C)C)CC[C@@]45C[C@@]35CC[C@]21C)C(C)(C)O ? 2400 nM

What do we get for CC(=O)O[C@@H]([C@H]1C[C@@H](C)[C@H]2[C@H](O1)[C@H](O)[C@@]1(C)[C@@H]3CC[C@H]4C(C)(C)[C@@H](O[C@H]5CN(C(=O)c6cn(C)cn6)CCO5)CC[C@@]45C[C@@]35CC[C@]21C)C(C)(C)O ? 130 nM

What do we get for CC(=O)O[C@@H]([C@H]1C[C@@H](C)[C@H]2[C@H](O1)[C@H](O)[C@@]1(C)[C@@H]3CC[C@H]4C(C)(C)[C@@H](O[C@H]5CN(CCC(=O)O)CCO5)CC[C@@]45C[C@@]35CC[C@]21C)C(C)(C)O ? 490 nM
